# Test system: E. faecalis MMX 847 Macrolide-Resistant
# assay-procedure: MIC determination
# Format: cell-based
# test-parameters: Enterococcus faecalis; E. faecalis MMX 847 Macrolide-Resistant (MacRes); read-out: MIC
endpoint: MIC (µg/mL)
Only the number, expressed in µg/mL, is required.

Measured MIC of CSC1O[C@H]([C@H](NC(=O)[C@H]2NC[C@@H]3C[C@@H](c4ccc(F)cc4)CCO[C@H]32)[C@H](C)Cl)C(O)[C@@H](O)[C@H]1O (some centres unmarked) [FSA-507061] : 32

Measured MIC of CSC1O[C@H]([C@H](NC(=O)[C@H]2NC[C@@H]3CC(c4ccc(C(F)(F)F)cc4)=CCO[C@H]32)[C@H](C)Cl)C(O)[C@@H](O)[C@H]1O (some centres unmarked) [FSA-507060] : 32
